For each entry below, report its IC50 value.
System: NF-κB
Experiment: NF-κB assay: THP1-NF-κB-LUC cells, LPS-stimulated secreted luciferase
Format: cell-based
Conditions: THP1-NF-κB-LUC cells; compounds 2 hours before LPS (10 ng/mL) for 18 hours; secreted luciferase; read-out: IC50 (NF-κB assay)

Fill in: NF-κB IC50 for CCC1Oc2c(cc(Cl)cc2S(=O)(=O)Nc2ccc(F)cc2)NC1=O (stereo not drawn) = < 0.1 µM

NF-κB IC50 of CCc1ccc(NS(=O)(=O)c2cc3c(cc2C)N(C)CCO3)cc1 is > 10 µM

Value sought: IC50, system NF-κB, item Cc1ccc(NS(=O)(=O)c2cc(Br)cc3c2OC(C)C(=O)N3)cc1Cl (stereo not drawn) . Result: 0.1 to 1 µM

Tested on NF-κB: O=S(=O)(c1ccc(F)cc1)c1cnccc1O . Observed IC50: > 10 µM

Reported IC50 (NF-κB) for entry COc1ccc(NS(=O)(=O)c2cc(Br)cc3c2OCC(=O)N3)cc1 is < 0.1 µM

Response field IC50 (NF-κB) for item CC1Oc2cc(S(=O)(=O)Nc3ccc(C(C)C)cc3)c(Br)cc2N(C)C1=O (stereo not drawn) : 1 to 10 µM

Entry Cc1cc(C)c(S(=O)(=O)c2ccc(Br)cc2)c(=O)[nH]1 : IC50 on NF-κB = > 10 µM

For CCc1cccc(CC)c1NS(=O)(=O)c1cc2c(cc1C)NC(=O)CO2 on NF-κB, measured IC50 was > 10 µM

The reported NF-κB IC50 of CC(=O)N1CCOc2cc(S(=O)(=O)Nc3ccc(F)cc3F)c(C)cc21 is 1 to 10 µM
